Every entry's value here was drawn from patent US20090304651A1.

Assayed System: T1, recombinant human IGF-II (Insulin-like Growth Factor II) (human, UniProt P01344 25-91, biotinylated (Biotinyl-IGF-II, GroPep) where immobilised in SPR, site not stated; not biotinylated in ITC and as SPR analyte)
T1 construct: also called IGF2; IGF-2
T1 sequence (P01344 25-91 limits assumed): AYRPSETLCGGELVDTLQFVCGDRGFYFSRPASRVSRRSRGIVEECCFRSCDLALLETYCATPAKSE
Measurement Notes: SPR, IGF-II immobilised, kinetic fit
Measurement Name: koff (s⁻¹)
Report the value in s⁻¹ with no unit label.

These solved cases illustrate the format of a correct answer.
IGF2R domain 11 with serine at position 1544 (E1544S) (receptor) NEHDDCQVTNPSTGHLFDLSSLSGRAGFTAAYSSKGLVYMSICGENENCPPGVGACFGQTRISVGKANKRLRYVDQVLQLVYKDGSPCPSKSGLSYKSVISFVCRPEAGPTNRPMLISLDKQTCTLFFSWHTPLACEQATHHHHHH ... 0.0494
IGF2R domain 11 with tryptophan at position 1544 (E1544W) (receptor) NEHDDCQVTNPSTGHLFDLSSLSGRAGFTAAYSWKGLVYMSICGENENCPPGVGACFGQTRISVGKANKRLRYVDQVLQLVYKDGSPCPSKSGLSYKSVISFVCRPEAGPTNRPMLISLDKQTCTLFFSWHTPLACEQATHHHHHH ... 0.0588
IGF2R domain 11 with threonine at position 1544 (E1544T) (receptor) NEHDDCQVTNPSTGHLFDLSSLSGRAGFTAAYSTKGLVYMSICGENENCPPGVGACFGQTRISVGKANKRLRYVDQVLQLVYKDGSPCPSKSGLSYKSVISFVCRPEAGPTNRPMLISLDKQTCTLFFSWHTPLACEQATHHHHHH ... 0.0692
IGF2R domain 11 E1544A (amino acids 1511-1650, C-terminal His6 tag, from Pichia pastoris) (receptor) NEHDDCQVTNPSTGHLFDLSSLSGRAGFTAAYSAKGLVYMSICGENENCPPGVGACFGQTRISVGKANKRLRYVDQVLQLVYKDGSPCPSKSGLSYKSVISFVCRPEAGPTNRPMLISLDKQTCTLFFSWHTPLACEQATHHHHHH ... 0.0558
IGF2R domain 11 with tyrosine at position 1544 (E1544Y) (receptor) NEHDDCQVTNPSTGHLFDLSSLSGRAGFTAAYSYKGLVYMSICGENENCPPGVGACFGQTRISVGKANKRLRYVDQVLQLVYKDGSPCPSKSGLSYKSVISFVCRPEAGPTNRPMLISLDKQTCTLFFSWHTPLACEQATHHHHHH ... 0.0614
IGF2R domain 11 with isoleucine at position 1544 (E1544I) (receptor) NEHDDCQVTNPSTGHLFDLSSLSGRAGFTAAYSIKGLVYMSICGENENCPPGVGACFGQTRISVGKANKRLRYVDQVLQLVYKDGSPCPSKSGLSYKSVISFVCRPEAGPTNRPMLISLDKQTCTLFFSWHTPLACEQATHHHHHH ... 0.0649
IGF2R domain 11 with asparagine at position 1544 (E1544N) (receptor) NEHDDCQVTNPSTGHLFDLSSLSGRAGFTAAYSNKGLVYMSICGENENCPPGVGACFGQTRISVGKANKRLRYVDQVLQLVYKDGSPCPSKSGLSYKSVISFVCRPEAGPTNRPMLISLDKQTCTLFFSWHTPLACEQATHHHHHH ... 0.122
IGF2R domain 11 with histidine at position 1544 (E1544H) (receptor) NEHDDCQVTNPSTGHLFDLSSLSGRAGFTAAYSHKGLVYMSICGENENCPPGVGACFGQTRISVGKANKRLRYVDQVLQLVYKDGSPCPSKSGLSYKSVISFVCRPEAGPTNRPMLISLDKQTCTLFFSWHTPLACEQATHHHHHH ... 0.0689

Exam item: Sample IGF2R domain 11 with methionine at position 1544 (E1544M) (receptor) NEHDDCQVTNPSTGHLFDLSSLSGRAGFTAAYSMKGLVYMSICGENENCPPGVGACFGQTRISVGKANKRLRYVDQVLQLVYKDGSPCPSKSGLSYKSVISFVCRPEAGPTNRPMLISLDKQTCTLFFSWHTPLACEQATHHHHHH — what was its koff?
Marked response: 0.0566

Exam item: Try IGF2R domain 11 with aspartate at position 1544 (E1544D) (receptor) NEHDDCQVTNPSTGHLFDLSSLSGRAGFTAAYSDKGLVYMSICGENENCPPGVGACFGQTRISVGKANKRLRYVDQVLQLVYKDGSPCPSKSGLSYKSVISFVCRPEAGPTNRPMLISLDKQTCTLFFSWHTPLACEQATHHHHHH next.
Marked response: 0.14

Exam item: Try IGF2R domain 11 with proline at position 1544 (E1544P) (receptor) NEHDDCQVTNPSTGHLFDLSSLSGRAGFTAAYSPKGLVYMSICGENENCPPGVGACFGQTRISVGKANKRLRYVDQVLQLVYKDGSPCPSKSGLSYKSVISFVCRPEAGPTNRPMLISLDKQTCTLFFSWHTPLACEQATHHHHHH next.
Marked response: 0.172

Exam item: Try IGF2R domain 11 with glutamine at position 1544 (E1544Q) (receptor) NEHDDCQVTNPSTGHLFDLSSLSGRAGFTAAYSQKGLVYMSICGENENCPPGVGACFGQTRISVGKANKRLRYVDQVLQLVYKDGSPCPSKSGLSYKSVISFVCRPEAGPTNRPMLISLDKQTCTLFFSWHTPLACEQATHHHHHH next.
Marked response: 0.0578
